Kindly supply the reported hCD71:HSA values for the records listed here.
- tested on: T1, human CD71 extracellular domain (CD71-ECD) (human, UniProt P02786 89-760)
- T1 construct: also called hCD71; human CD71-ECD
- T1 sequence (P02786 89-760): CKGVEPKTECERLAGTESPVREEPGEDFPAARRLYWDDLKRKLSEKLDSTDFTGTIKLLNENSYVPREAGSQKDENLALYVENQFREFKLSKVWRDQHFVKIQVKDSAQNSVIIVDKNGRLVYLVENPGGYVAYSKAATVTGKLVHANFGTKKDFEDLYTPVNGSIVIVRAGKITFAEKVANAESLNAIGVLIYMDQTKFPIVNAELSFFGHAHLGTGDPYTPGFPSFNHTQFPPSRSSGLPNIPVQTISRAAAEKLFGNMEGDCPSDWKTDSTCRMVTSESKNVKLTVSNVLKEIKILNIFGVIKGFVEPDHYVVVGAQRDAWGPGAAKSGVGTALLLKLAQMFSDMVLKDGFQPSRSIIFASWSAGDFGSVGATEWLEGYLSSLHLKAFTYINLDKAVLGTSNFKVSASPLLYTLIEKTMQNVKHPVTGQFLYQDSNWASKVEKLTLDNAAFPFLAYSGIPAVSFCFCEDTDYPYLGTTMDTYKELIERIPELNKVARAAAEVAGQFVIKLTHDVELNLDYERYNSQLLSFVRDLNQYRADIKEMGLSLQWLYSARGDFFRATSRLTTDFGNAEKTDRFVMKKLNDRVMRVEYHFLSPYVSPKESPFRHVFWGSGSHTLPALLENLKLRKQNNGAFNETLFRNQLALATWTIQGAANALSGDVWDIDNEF
- test: primary ELISA, RLU ratio to HSA
Reply with the value as a number alone.

Query: Complete the entry with hCD71:HSA for CD71-binding FN3 domain SEQ ID NO: 284 (designed binder) MSLPAPKNLVVSRVTEDSARLSWTAPDAAFDSFEIGYWENAYKGEAIVLTVPGSERSYDLTGLKPGTEYMVFIGGVKGGVWSVPLSAIFTT
Response: 195

Query: Fill in reported hCD71:HSA for this entry: CD71-binding FN3 domain SEQ ID NO: 243 (designed binder) MSLPAPKNLVVSRVTEDSARLSWTAPDAAFDSFFIGYLEPQPPGEAIHLYVPGSERSYDLTGLKPGTEYNVTIQGVKGGEWSAPLSAIFTT
Response: 355

Query: Annotate the binder CD71-binding FN3 domain SEQ ID NO: 255 (designed binder) MSLPAPKNLVVSRVTEDSARLSWTTPDAAFDSFEIAYFEIAWLGEAIVLTVPGSERSYDLTGLKPGTEYWVQIGGVKGGAYSTPLSAIFTT with its measured hCD71:HSA.
Response: 90

Query: Please list hCD71:HSA recorded for the binder CD71-binding FN3 domain SEQ ID NO: 238 (designed binder) MSLPAPKNLVVSRVTEDSARLSWTAPDAAFDSFEIGYFENDYFGEAIVLTVPGSERSYDLTGLKPGTEYVVFIGGVKGGKWSAPLSAIFTT
Response: 576
